Listing of recorded solubility kinetic by entry.
REPORTED_CONDITIONS: buffer; pH 7.4; 200.0 µM

Field: example entries. Status: answers known.
Please look at this compound and report its solubility kinetic: N#C/C(=C\c1ccc(O)cc1)C(=O)NCc1cccc(Cl)c1 < 0.3 µg/mL

Could you please provide reported solubility kinetic for O=C(NCCCO)C(=O)Nc1cc2c3c(c1)CCN3C(=O)CC2 ? Thanks! > 47.6 µg/mL

Given the compound CCn1ccc(C(=O)N2CCN(c3ncccn3)CC2)n1 , write its reported solubility kinetic. > 43 µg/mL

Quote solubility kinetic reported for CSCC(=O)N1CCCC(CO)(CCCc2ccccc2)C1 (stereo unspecified) please. > 48.2 µg/mL

Provide measured solubility kinetic value, entry: COc1ccccc1C(=O)NCCC(=O)NCc1cccs1 > 47.8 µg/mL

Switching to the query record.
Supply reported solubility kinetic belonging to this compound: O=C1CCC(=O)N1CCSC(=S)N1CCSCC1 > 45.7 µg/mL

###

Each entry below carries its reported solubility kinetic.
REPORTED_CONDITIONS: buffer; pH 7.4; 200.0 µM
Answer format: numeric, µg/mL implied, no suffix.

See these solved cases before continuing.
Answer with reported solubility kinetic of O=c1[nH]cnc2sc3c(c12)CN(Cc1ccccc1)CC3 21.3

State its solubility kinetic for this compound: O=C(CCC(=O)NCc1ccccc1)NCc1ccccc1 12.7

Return value of solubility kinetic for input CCN(CC)c1ccc(NC(=O)c2ccc(S(=O)(=O)N3CCOCC3)cc2)cc1 , no commentary. 4.7

---
Provide one value: measured solubility kinetic of Cc1ccc(CN(Cc2ccco2)C(=S)NCC(=O)NC2CC2)cc1 47.2

Given O=C1c2ccc([N+](=O)[O-])cc2S(=O)(=O)N1Cc1ccccc1 , respond with its solubility kinetic. 8.3

###

REPORTED_CONDITIONS: buffer; pH 7.4; 200.0 µM
ENDPOINT_NAME: solubility kinetic

Give reported solubility kinetic value for COc1ccc(CNC(=O)Cc2cn(C)c3ccccc23)c(OC)c1 > 50.8 µg/mL

Look up and report measured solubility kinetic for this entry: CC(C)(C)CC(=O)NCc1cccs1 > 31.7 µg/mL

Return the recorded solubility kinetic value; entry: COc1cc(C(=O)NC(c2ccccc2)c2ccccc2)cc(OC)c1OC < 0.8 µg/mL

Provide one value: measured solubility kinetic of O=NN1CCN(c2ccncc2S(=O)(=O)N2CCCCC2)CC1 > 50.9 µg/mL

Tell me solubility kinetic reported for c1cncc(CNc2nc(-c3cccnc3)nc3ccccc23)c1 > 47 µg/mL

Query solubility kinetic for Cc1ccc(C(=O)NCCNS(=O)(=O)c2ccccc2)cn1 > 47.9 µg/mL

For the next question, use this molecule.
Read the entry OCC1(Cc2ccccc2)CCN(CCCC2CCCC2)CC1 and write its reported solubility kinetic. > 47.3 µg/mL

###

REPORTED_CONDITIONS: buffer; pH 7.4; 200.0 µM
ENDPOINT_NAME: solubility kinetic

Solved entries:
Give recorded solubility kinetic. Cc1nc(N2CCOCC2)[nH]c(=O)c1C > 31.4 µg/mL

Give the reported value of solubility kinetic for this record: COc1ccc(CCNC(=O)COC(=O)c2cc3ccccc3oc2=O)cc1OC > 61.7 µg/mL

Specify reported solubility kinetic for the molecule shown: COc1ccc(C)cc1NC(=O)CSc1cccc[n+]1[O-] > 45.7 µg/mL

// Input: N#Cc1ccccc1S(=O)(=O)N1CCN(C(=O)C2CCCC2)CC1 . Output its solubility kinetic only. > 52.1 µg/mL

Please indicate solubility kinetic recorded for Cc1onc(-c2ccccc2Cl)c1C(=O)N1CCCC1 > 43.6 µg/mL

For the molecule CCOc1ccc(NC(=O)Nc2cccc(C)n2)cc1 , report solubility kinetic. < 0.2 µg/mL

Supply reported solubility kinetic belonging to this molecule: COC(=O)CCC(=O)Nc1nccs1 > 32.1 µg/mL

Supply recorded solubility kinetic for CC(=O)Oc1ccc2c(=O)c(/C=N/c3cc(=O)[nH]c(=S)[nH]3)coc2c1 here. 30.6 µg/mL

Further cases:
Give the value of solubility kinetic reported for the following: O=C(COC(=O)/C=C/c1ccccc1)NCCc1ccc(F)cc1 3.5 µg/mL

Identify solubility kinetic associated with the molecule CC(C)NC(=O)c1cc(-c2cccs2)nc2ccccc12 4.6 µg/mL

Output measured solubility kinetic for this item: N/C(=N\c1nc2ccccc2o1)NC(=O)c1ccccc1Br < 0.2 µg/mL

Please supply the value of reported solubility kinetic for the item Cc1cc[n+](CCc2ccccc2)cc1C.[Br-] > 43.8 µg/mL

Give the reported value of solubility kinetic for this record: CCC(=O)Nc1ccc2c(c1)nc(CCNC(=O)c1ccco1)n2C > 51.1 µg/mL

Quick one: give measured solubility kinetic for CSc1nc(NS(=O)(=O)c2ccc(F)cc2F)nn1C > 48 µg/mL

For the molecule Brc1ccc(-c2nc(-c3ccncc3)no2)cc1 , give its measured solubility kinetic value. < 0.2 µg/mL
